target: human cathepsin B (Homo sapiens, UniProt P07858); construct: purchased Millipore Sigma or R&D Systems; assay: Kinetic assay of human cathepsin B inhibition (Z-LR-AMC fluorescence); assay type: biochemical; settings: 25 °C, pH 5.5; time-dependent inhibitors at t ∼ 30 min (steady-state); read-out: Ki * (nM) hCat B
Under this convention, yes denotes Ki strictly below 200 nM and no denotes Ki at or above 200 nM.

COMPOUND | TARGET SYSTEM | DISCRETE LABEL
COc1cccc2[nH]c(C(=O)NC(CC(C)C)C(=O)NC(C=O)Cc3ccc[nH]c3=O)cc12 (centres unmarked) | human cathepsin B (Homo sapiens, UniProt P07858) | yes
CC(C)CC(NC(=O)c1cc2ccccc2[nH]1)C(=O)NC(C=O)Cc1ccc[nH]c1=O (centres unmarked) | human cathepsin B (Homo sapiens, UniProt P07858) | no
O=CC(Cc1ccc[nH]c1=O)NC(=O)C(CC1CCCCC1)NC(=O)c1cc2ccccc2[nH]1 (centres unmarked) | human cathepsin B (Homo sapiens, UniProt P07858) | yes
CC(C)C[C@H](NC(=O)OCc1ccccc1)C(=O)N[C@@H](CC1CCCCC1)C(=O)N[C@H](C=O)Cc1ccc[nH]c1=O | human cathepsin B (Homo sapiens, UniProt P07858) | no
COc1cccc2[nH]c(C(=O)N[C@@H](CC(C)C)C(=O)N[C@H](C=O)Cc3cocn3)cc12 | human cathepsin B (Homo sapiens, UniProt P07858) | yes

The reported measurements were obtained from paper PMC11744766.
